# Test system: LNCaP tumor-transplanted mouse
# METHOD: Internal radioactivity distribution using LNCaP tumor-transplanted mouse
# Assay type: in vivo
# EXPERIMENTAL_CONDITIONS: 1 h after administration
MEASUREMENT_TYPE: Brain

O=C([O-])CN(Cc1cccc(C(=O)[O-])n1)C[C@H](Cc1ccc(NC(=O)[C@H](CCCCNC(=O)CCC(=O)NCCCC[C@H](NC(=O)N[C@@H](CCC(=O)O)C(=O)O)C(=O)O)NC(=O)CCCc2ccc(I)cc2)cc1)N(CC(=O)[O-])Cc1cccc(C(=O)[O-])n1.[111In+3] [[^111In]In-Octapa-2] :: 0.20 ± 0.03 % ID/g
O=C([O-])CN1CCN(C(CCC(=O)NCCCC[C@H](NC(=O)N[C@@H](CCC(=O)O)C(=O)O)C(=O)O)C(=O)[O-])CCN(CC(=O)[O-])CCN(C(CCC(=O)N[C@@H](CCCCNC(=O)CCCc2ccc(I)cc2)C(=O)O)C(=O)[O-])CC1.[111In+3] (stereo partly drawn) [[^111In]In-PSMA-DA1] :: 0.56 ± 0.06 % ID/g
O=C(O)CC[C@H](NC(=O)N[C@@H](CCCCNC(=O)[C@H](Cc1ccc2ccccc2c1)NC(=O)[C@H]1CC[C@H](CNC(=O)CCC(C(=O)O)N2CCN(CC(=O)O)CCN(C(CCC(=O)N[C@@H](CCCCNC(=O)CCCc3ccc(I)cc3)C(=O)O)C(=O)O)CCN(CC(=O)O)CC2)CC1)C(=O)O)C(=O)O (stereo partly drawn) [[^111In]In-PSMA-NAT-DA1, metal not drawn] :: 0.63 ± 0.03 % ID/g
O=C([O-])CN(Cc1cccc(C(=O)[O-])n1)C[C@H](Cc1ccc(NC(=O)[C@H](CCCCNC(=O)CCC(=O)NCCCC[C@H](NC(=O)N[C@@H](CCC(=O)O)C(=O)O)C(=O)O)NC(=O)COCCOCCOCC(=O)N[C@@H](CCCCNC(=O)CCCc2ccc(I)cc2)C(=O)O)cc1)N(CC(=O)[O-])Cc1cccc(C(=O)[O-])n1.[111In+3] [[^111In]In-Octapa-3] :: 0.40 ± 0.05 % ID/g
O=C([O-])CN(Cc1cccc(C(=O)[O-])n1)C[C@H](Cc1ccc(NC(=O)CCCCCNC(=O)CCC(=O)NCCCC[C@H](NC(=O)N[C@@H](CCC(=O)O)C(=O)O)C(=O)O)cc1)N(CC(=O)[O-])Cc1cccc(C(=O)[O-])n1.[111In+3] [[^111In]In-Octapa-1, reference compound] :: 0.02 ± 0.00 % ID/g
O=C([O-])CN(CCN(CCc1ccc(NC(=O)[C@H](CCCCNC(=O)CCC(=O)NCCCC[C@H](NC(=O)N[C@@H](CCC(=O)O)C(=O)O)C(=O)O)NC(=O)CCCc2ccc(I)cc2)cc1)CCN(CC(=O)[O-])Cc1cccc(C(=O)[O-])n1)Cc1cccc(C(=O)[O-])n1.[111In+3] [[^111In]In-Neunpa-2] :: 0.18 ± 0.00 % ID/g

---

# Kidney per record follows
# Tested on: LNCaP tumor-transplanted mouse
# METHOD: Internal radioactivity distribution using LNCaP tumor-transplanted mouse
# Format: in vivo
# EXPERIMENTAL_CONDITIONS: 192 h after administration
MEASUREMENT_TYPE: Kidney (% ID/g)

O=C([O-])CN(Cc1cccc(C(=O)[O-])n1)C[C@H](Cc1ccc(NC(=O)[C@H](CCCCNC(=O)CCC(=O)NCCCC[C@H](NC(=O)N[C@@H](CCC(=O)O)C(=O)O)C(=O)O)NC(=O)CCCc2ccc(I)cc2)cc1)N(CC(=O)[O-])Cc1cccc(C(=O)[O-])n1.[111In+3] [[^111In]In-Octapa-2] :: 1.76
O=C([O-])CN(Cc1cccc(C(=O)[O-])n1)C[C@H](Cc1ccc(NC(=O)[C@H](CCCCNC(=O)CCC(=O)NCCCC[C@H](NC(=O)N[C@@H](CCC(=O)O)C(=O)O)C(=O)O)NC(=O)COCCOCCOCC(=O)N[C@@H](CCCCNC(=O)CCCc2ccc(I)cc2)C(=O)O)cc1)N(CC(=O)[O-])Cc1cccc(C(=O)[O-])n1.[111In+3] [[^111In]In-Octapa-3] :: 0.27
O=C([O-])CN1CCN(C(CCC(=O)NCCCC[C@H](NC(=O)N[C@@H](CCC(=O)O)C(=O)O)C(=O)O)C(=O)[O-])CCN(CC(=O)[O-])CCN(C(CCC(=O)N[C@@H](CCCCNC(=O)CCCc2ccc(I)cc2)C(=O)O)C(=O)[O-])CC1.[111In+3] (stereo partly drawn) [[^111In]In-PSMA-DA1] :: 1.33

---

# Lung per record follows
# Test system: LNCaP tumor-transplanted mouse
# METHOD: Internal radioactivity distribution using LNCaP tumor-transplanted mouse
# Type: in vivo
# EXPERIMENTAL_CONDITIONS: 4 h after administration
MEASUREMENT_TYPE: Lung (% ID/g)

O=C([O-])CN(CCN(CCc1ccc(NC(=O)[C@H](CCCCNC(=O)CCC(=O)NCCCC[C@H](NC(=O)N[C@@H](CCC(=O)O)C(=O)O)C(=O)O)NC(=O)CCCc2ccc(I)cc2)cc1)CCN(CC(=O)[O-])Cc1cccc(C(=O)[O-])n1)Cc1cccc(C(=O)[O-])n1.[111In+3] [[^111In]In-Neunpa-2] :: 4.14
O=C([O-])CN1CCN(C(CCC(=O)NCCCC[C@H](NC(=O)N[C@@H](CCC(=O)O)C(=O)O)C(=O)O)C(=O)[O-])CCN(CC(=O)[O-])CCN(C(CCC(=O)N[C@@H](CCCCNC(=O)CCCc2ccc(I)cc2)C(=O)O)C(=O)[O-])CC1.[111In+3] (stereo partly shown) [[^111In]In-PSMA-DA1] :: 17.9
O=C([O-])CN(Cc1cccc(C(=O)[O-])n1)C[C@H](Cc1ccc(NC(=O)CCCCCNC(=O)CCC(=O)NCCCC[C@H](NC(=O)N[C@@H](CCC(=O)O)C(=O)O)C(=O)O)cc1)N(CC(=O)[O-])Cc1cccc(C(=O)[O-])n1.[111In+3] [[^111In]In-Octapa-1, reference compound] :: 0.23
O=C([O-])CN(Cc1cccc(C(=O)[O-])n1)C[C@H](Cc1ccc(NC(=O)[C@H](CCCCNC(=O)CCC(=O)NCCCC[C@H](NC(=O)N[C@@H](CCC(=O)O)C(=O)O)C(=O)O)NC(=O)CCCc2ccc(I)cc2)cc1)N(CC(=O)[O-])Cc1cccc(C(=O)[O-])n1.[111In+3] [[^111In]In-Octapa-2] :: 5.02
O=C([O-])CN(CCN(CCc1ccc(NC(=O)CCCCCNC(=O)CCC(=O)NCCCC[C@H](NC(=O)N[C@@H](CCC(=O)O)C(=O)O)C(=O)O)cc1)CCN(CC(=O)[O-])Cc1cccc(C(=O)[O-])n1)Cc1cccc(C(=O)[O-])n1.[111In+3] [[^111In]In-Neunpa-1, reference compound] :: 1.03
O=C(O)CC[C@H](NC(=O)N[C@@H](CCCCNC(=O)[C@H](Cc1ccc2ccccc2c1)NC(=O)[C@H]1CC[C@H](CNC(=O)CCC(C(=O)O)N2CCN(CC(=O)O)CCN(C(CCC(=O)N[C@@H](CCCCNC(=O)CCCc3ccc(I)cc3)C(=O)O)C(=O)O)CCN(CC(=O)O)CC2)CC1)C(=O)O)C(=O)O (stereo partly shown) [[^111In]In-PSMA-NAT-DA1, metal not drawn] :: 26.5
O=C([O-])CN1CCN(C(CCC(=O)NCCCC[C@H](NC(=O)N[C@@H](CCC(=O)O)C(=O)O)C(=O)O)C(=O)[O-])CCN(CC(=O)[O-])CCN(C(CCC(=O)Nc2ccccc2)C(=O)[O-])CC1.[111In+3] (stereo partly shown) [[^111In]In-PSMA-DB, reference compound] :: 1.56

---

# Kidney per record follows
# Test system: LNCaP tumor-transplanted mouse
# METHOD: Internal radioactivity distribution using LNCaP tumor-transplanted mouse
# Assay type: in vivo
# EXPERIMENTAL_CONDITIONS: 48 h after administration
MEASUREMENT_TYPE: Kidney

O=C([O-])CN(CCN(CCc1ccc(NC(=O)[C@H](CCCCNC(=O)CCC(=O)NCCCC[C@H](NC(=O)N[C@@H](CCC(=O)O)C(=O)O)C(=O)O)NC(=O)CCCc2ccc(I)cc2)cc1)CCN(CC(=O)[O-])Cc1cccc(C(=O)[O-])n1)Cc1cccc(C(=O)[O-])n1.[111In+3] [[^111In]In-Neunpa-2] :: 11.7 ± 3.83 % ID/g
O=C([O-])CN1CCN(C(CCC(=O)NCCC(=O)N2Cc3ccccc3-c3c(nnn3CCOCCOCCOCCOCCC(=O)NCCCC[C@H](NC(=O)N[C@@H](CCC(=O)O)C(=O)O)C(=O)O)-c3ccccc32)C(=O)[O-])CCN(CC(=O)[O-])CCN(C(CCC(=O)N[C@@H](CCCCNC(=O)CCCc2ccc(I)cc2)C(=O)O)C(=O)[O-])CC1.[111In+3] (stereo partly shown) [[^111In]In-PtDA] :: 55.9 ± 6.39 % ID/g
O=C([O-])CN1CCN(C(CCC(=O)NCCCC[C@H](NC(=O)N[C@@H](CCC(=O)O)C(=O)O)C(=O)O)C(=O)[O-])CCN(CC(=O)[O-])CCN(C(CCC(=O)N[C@@H](CCCCNC(=O)CCCc2ccc(I)cc2)C(=O)O)C(=O)[O-])CC1.[111In+3] (stereo partly shown) [[^111In]In-PSMA-DA1] :: 9.04 ± 2.70 % ID/g
O=C([O-])CN1CCN(C(CCC(=O)NCCCC[C@H](NC(=O)N[C@@H](CCC(=O)O)C(=O)O)C(=O)O)C(=O)[O-])CCN(CC(=O)[O-])CCN(C(CCC(=O)Nc2ccccc2)C(=O)[O-])CC1.[111In+3] (stereo partly shown) [[^111In]In-PSMA-DB, reference compound] :: 8.58 ± 2.02 % ID/g
